- TARGET_DESC: PKN3 (Homo sapiens, UniProt Q6P5Z2)
- Sequence (Q6P5Z2 whole entry): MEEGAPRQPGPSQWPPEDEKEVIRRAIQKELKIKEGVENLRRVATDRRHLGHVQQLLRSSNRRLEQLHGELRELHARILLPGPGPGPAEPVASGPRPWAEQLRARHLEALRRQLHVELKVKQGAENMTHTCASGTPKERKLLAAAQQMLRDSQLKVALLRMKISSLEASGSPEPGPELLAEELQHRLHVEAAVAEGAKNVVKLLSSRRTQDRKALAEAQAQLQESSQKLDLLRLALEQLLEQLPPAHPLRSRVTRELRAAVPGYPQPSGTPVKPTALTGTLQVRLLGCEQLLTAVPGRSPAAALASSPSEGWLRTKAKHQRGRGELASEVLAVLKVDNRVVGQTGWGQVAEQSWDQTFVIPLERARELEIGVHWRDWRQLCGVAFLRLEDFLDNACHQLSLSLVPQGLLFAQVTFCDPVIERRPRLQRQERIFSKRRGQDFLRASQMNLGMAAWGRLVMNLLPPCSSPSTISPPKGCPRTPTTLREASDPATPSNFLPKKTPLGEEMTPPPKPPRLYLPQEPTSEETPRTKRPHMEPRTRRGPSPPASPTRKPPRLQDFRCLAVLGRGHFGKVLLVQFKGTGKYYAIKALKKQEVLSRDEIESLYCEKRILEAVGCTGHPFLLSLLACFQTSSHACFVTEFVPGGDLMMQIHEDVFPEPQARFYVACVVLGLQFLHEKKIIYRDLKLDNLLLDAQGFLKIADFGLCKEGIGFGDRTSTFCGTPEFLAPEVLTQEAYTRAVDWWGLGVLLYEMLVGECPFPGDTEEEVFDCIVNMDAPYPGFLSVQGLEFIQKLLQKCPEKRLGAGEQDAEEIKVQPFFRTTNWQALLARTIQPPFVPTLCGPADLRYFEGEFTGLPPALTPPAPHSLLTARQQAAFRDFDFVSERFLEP
- TEST_PROTOCOL: split-luciferase binding assay
- PROTOCOL_CONDITIONS: PKN3 IC50, SLCA assay (n=2), 8-point dose response
For each record, write down the corresponding IC50.
Please respond with the number in µM and leave the unit unwritten.

Measured IC50, COc1cc2nccc(Oc3ccc(NC(=O)C4(C(=O)Nc5ccc(F)cc5)CC4)cc3)c2cc1OC [Cabozantinib] : 42

Lab note: COc1cc2c(Nc3ccc(Br)cc3F)ncnc2cc1OCC1CCN(C)CC1 [Vandetanib] gave IC50 of 0.54

# IC50 of CS(=O)(=O)CCNCc1ccc(-c2ccc3ncnc(Nc4ccc(OCc5cccc(F)c5)c(Cl)c4)c3c2)o1 [Lapatinib] = 5.9

Lab note: measured IC50 of COc1cc2c(Nc3ccc(Cl)c(Cl)c3F)ncnc2cc1OC[C@@H]1C[C@@H]2CN(C)C[C@@H]2C1 [Tesevatinib] was 0.24

Lab note: CNC(=O)CN1CCC(Oc2cc3c(Nc4cccc(Cl)c4F)ncnc3cc2OC)CC1 [Sapitinib] gave IC50 of 44

----------
- TARGET_DESC: PKN3 (Homo sapiens, UniProt Q6P5Z2)
- TEST_PROTOCOL: PKN3 NanoBRET in-cell target engagement
- Assay type: cell-based
QUANTITY_NAME: IC50 (nM)
Record the value in nM, omitting the unit from your answer.

Measured IC50 for this entry COc1cc(Nc2ccnc3cc(I)ccc23)cc(OC)c1OC on PKN3 (Homo sapiens, UniProt Q6P5Z2): 1300
